# PROCEDURE TEXT: Apparent intrinsic clearance in rat liver microsomes
# Type: ADME, Microsome
# TEST SETTINGS: read-out: CLH(app)
TEST READOUT: microsomal CLint
Give me the value, and tack the unit on after it.

*Q* What microsomal CLint value was documented for this molecule, O=c1n(Cc2nc(-c3cccnc3)cn2CCCCO)c2cnccc2n1C1CC1 ?
*A* 44 µL/min/mg
